Exercise: for every item that follows, state its recorded growth rate.
tested on: Scenedesmus obliquus; test: Effect of hormone concentrations on growth rate, photoheterotrophic conditions, 48 hours; assay type: cell-based; set-up: unit not given here; conditions: hormone 0.01 ng, control 0.41 ± 0.042
Form: value (number only, do not type unit).

**Q:** Supply recorded growth rate for c1coc(CNc2ncnc3[nH]cnc23)c1 here.
**A:** 0.57

**Q:** Supply recorded growth rate for C=C1C[C@]23C[C@@]1(O)CC[C@H]2[C@@]12C=C[C@H](O)[C@@](C)(C(=O)O1)[C@H]2[C@@H]3C(=O)O here.
**A:** 0.59

**Q:** Supply recorded growth rate for c1ccc(CNc2ncnc3nc[nH]c23)cc1 here.
**A:** 0.46

**Q:** Supply recorded growth rate for O=C(O)COc1ccc(Cl)cc1Cl here.
**A:** 0.42

**Q:** Supply recorded growth rate for O=C(O)Cc1c[nH]c2ccccc12 here.
**A:** 0.42

**Q:** Supply recorded growth rate for O=C(O)Cc1cccc2ccccc12 here.
**A:** 0.84

###

test system: Scenedesmus obliquus; assay: Effect of hormone concentrations on growth rate, heterotrophic conditions, 48 hours; type: cell-based; set-up: unit not given here; details: hormone 0.1 ng, control 0.35 ± 0.023
Exercise: for every item that follows, state its recorded growth rate.
Form: value (number only, do not type unit).

**Q:** Report growth rate under test system Scenedesmus obliquus for c1ccc(CNc2ncnc3nc[nH]c23)cc1 .
**A:** 0.32

**Q:** Report growth rate under test system Scenedesmus obliquus for O=C(O)COc1ccc(Cl)cc1Cl .
**A:** 0.23

**Q:** Report growth rate under test system Scenedesmus obliquus for c1coc(CNc2ncnc3[nH]cnc23)c1 .
**A:** 0.26

**Q:** Report growth rate under test system Scenedesmus obliquus for O=C(O)Cc1c[nH]c2ccccc12 .
**A:** 0.36

**Q:** Report growth rate under test system Scenedesmus obliquus for C=C1C[C@]23C[C@@]1(O)CC[C@H]2[C@@]12C=C[C@H](O)[C@@](C)(C(=O)O1)[C@H]2[C@@H]3C(=O)O .
**A:** 0.50

**Q:** Report growth rate under test system Scenedesmus obliquus for O=C(O)Cc1cccc2ccccc12 .
**A:** 0.28

###

test system: Chlorella protothecoides; test: Effect of hormone concentrations on growth rate, photoheterotrophic conditions, 48 hours; format: cell-based; set-up: unit not given here; details: hormone 10 ng, control 1.05 ± 0.020
Exercise: for every item that follows, state its recorded growth rate.
Form: value (number only, do not type unit).

**Q:** Supply recorded growth rate for O=C(O)Cc1cccc2ccccc12 [1-Naphthaleneacetic acid, 1-naphthaleneacetic acid] here.
**A:** 1.07

**Q:** Supply recorded growth rate for O=C(O)Cc1c[nH]c2ccccc12 [Indole-3-acetic acid, indole-3-acetic acid] here.
**A:** 1.13

**Q:** Supply recorded growth rate for c1ccc(CNc2ncnc3nc[nH]c23)cc1 [6-Benzylaminopurine, 6-benzylaminopurine] here.
**A:** 1.04

**Q:** Supply recorded growth rate for c1coc(CNc2ncnc3[nH]cnc23)c1 [Kinetin, kinetin] here.
**A:** 1.18

**Q:** Supply recorded growth rate for O=C(O)COc1ccc(Cl)cc1Cl [2,4-Dichlorophenoxyacetic, 2,4-dichlorophenoxyacetic acid] here.
**A:** 1.08

**Q:** Supply recorded growth rate for C=C1C[C@]23C[C@@]1(O)CC[C@H]2[C@@]12C=C[C@H](O)[C@@](C)(C(=O)O1)[C@H]2[C@@H]3C(=O)O [Gibberellic acid] here.
**A:** 1.09

###

test system: Chlorella protothecoides; test: Effect of hormone concentrations on growth rate, photoheterotrophic conditions, 48 hours; type: cell-based; conditions: hormone 0.01 ng, control 1.05 ± 0.020
Exercise: for every item that follows, state its recorded growth rate.
Form: value (number only, do not type unit).

**Q:** Supply recorded growth rate for O=C(O)COc1ccc(Cl)cc1Cl [2,4-Dichlorophenoxyacetic, 2,4-dichlorophenoxyacetic acid] here.
**A:** 1.09

**Q:** Supply recorded growth rate for O=C(O)Cc1cccc2ccccc12 [1-Naphthaleneacetic acid, 1-naphthaleneacetic acid] here.
**A:** 1.00

**Q:** Supply recorded growth rate for C=C1C[C@]23C[C@@]1(O)CC[C@H]2[C@@]12C=C[C@H](O)[C@@](C)(C(=O)O1)[C@H]2[C@@H]3C(=O)O [Gibberellic acid] here.
**A:** 1.06

**Q:** Supply recorded growth rate for c1coc(CNc2ncnc3[nH]cnc23)c1 [Kinetin, kinetin] here.
**A:** 1.08

**Q:** Supply recorded growth rate for c1ccc(CNc2ncnc3nc[nH]c23)cc1 [6-Benzylaminopurine, 6-benzylaminopurine] here.
**A:** 1.00

**Q:** Supply recorded growth rate for O=C(O)Cc1c[nH]c2ccccc12 [Indole-3-acetic acid, indole-3-acetic acid] here.
**A:** 1.06

###

test system: Scenedesmus obliquus; experiment: Effect of hormone concentrations on growth rate, photoheterotrophic conditions, 48 hours; format: cell-based; design: unit not given here; conditions: hormone 1 ng, control 0.41 ± 0.042
Could you mark each record yes if its growth rate falls strictly under 0.5, and no if it equals or exceeds it?

**Q:** Consider the compound C=C1C[C@]23C[C@@]1(O)CC[C@H]2[C@@]12C=C[C@H](O)[C@@](C)(C(=O)O1)[C@H]2[C@@H]3C(=O)O [Gibberellic acid] . Is its growth rate strictly less than 0.5?
**A:** no

**Q:** Consider the compound O=C(O)Cc1cccc2ccccc12 [1-Naphthaleneacetic acid, 1-naphthaleneacetic acid] . Is its growth rate strictly less than 0.5?
**A:** no

**Q:** Consider the compound c1ccc(CNc2ncnc3nc[nH]c23)cc1 [6-Benzylaminopurine, 6-benzylaminopurine] . Is its growth rate strictly less than 0.5?
**A:** yes

**Q:** Consider the compound c1coc(CNc2ncnc3[nH]cnc23)c1 [Kinetin, kinetin] . Is its growth rate strictly less than 0.5?
**A:** no

**Q:** Consider the compound O=C(O)COc1ccc(Cl)cc1Cl [2,4-Dichlorophenoxyacetic, 2,4-dichlorophenoxyacetic acid] . Is its growth rate strictly less than 0.5?
**A:** yes

###

Exercise: for every item that follows, state its recorded growth rate.
system: Scenedesmus obliquus; test: Effect of hormone concentrations on growth rate, photoheterotrophic conditions, 48 hours; assay type: cell-based; parameters: unit not given here; conditions: hormone 0.1 ng, control 0.41 ± 0.042
Form: value (number only, do not type unit).

**Q:** Supply recorded growth rate for C=C1C[C@]23C[C@@]1(O)CC[C@H]2[C@@]12C=C[C@H](O)[C@@](C)(C(=O)O1)[C@H]2[C@@H]3C(=O)O here.
**A:** 0.47

**Q:** Supply recorded growth rate for c1coc(CNc2ncnc3[nH]cnc23)c1 here.
**A:** 0.73

**Q:** Supply recorded growth rate for O=C(O)COc1ccc(Cl)cc1Cl here.
**A:** 0.44

**Q:** Supply recorded growth rate for O=C(O)Cc1cccc2ccccc12 here.
**A:** 0.85

**Q:** Supply recorded growth rate for O=C(O)Cc1c[nH]c2ccccc12 here.
**A:** 0.47

**Q:** Supply recorded growth rate for c1ccc(CNc2ncnc3nc[nH]c23)cc1 here.
**A:** 0.37

###

tested on: Scenedesmus obliquus; assay: Effect of hormone concentrations on growth rate, heterotrophic conditions, 48 hours; format: cell-based; set-up: unit not given here; details: hormone 10 ng, control 0.35 ± 0.023
Could you mark each record Y if its growth rate falls strictly under 0.4, and N if it equals or exceeds it?

**Q:** Consider the compound c1coc(CNc2ncnc3[nH]cnc23)c1 [Kinetin, kinetin] . Is its growth rate strictly less than 0.4?
**A:** Y

**Q:** Consider the compound O=C(O)Cc1c[nH]c2ccccc12 [Indole-3-acetic acid, indole-3-acetic acid] . Is its growth rate strictly less than 0.4?
**A:** N

**Q:** Consider the compound O=C(O)COc1ccc(Cl)cc1Cl [2,4-Dichlorophenoxyacetic, 2,4-dichlorophenoxyacetic acid] . Is its growth rate strictly less than 0.4?
**A:** Y

**Q:** Consider the compound c1ccc(CNc2ncnc3nc[nH]c23)cc1 [6-Benzylaminopurine, 6-benzylaminopurine] . Is its growth rate strictly less than 0.4?
**A:** Y

**Q:** Consider the compound C=C1C[C@]23C[C@@]1(O)CC[C@H]2[C@@]12C=C[C@H](O)[C@@](C)(C(=O)O1)[C@H]2[C@@H]3C(=O)O [Gibberellic acid] . Is its growth rate strictly less than 0.4?
**A:** Y

**Q:** Consider the compound O=C(O)Cc1cccc2ccccc12 [1-Naphthaleneacetic acid, 1-naphthaleneacetic acid] . Is its growth rate strictly less than 0.4?
**A:** Y

###

system: Scenedesmus obliquus; assay: Effect of hormone concentrations on growth rate, heterotrophic conditions, 48 hours; format: cell-based; set-up: unit not given here; conditions: hormone 1 ng, control 0.35 ± 0.023
parameter: growth rate

**Q:** Report growth rate under test system Scenedesmus obliquus for c1coc(CNc2ncnc3[nH]cnc23)c1 .
**A:** 0.36 ± 0.042

**Q:** Report growth rate under test system Scenedesmus obliquus for O=C(O)COc1ccc(Cl)cc1Cl .
**A:** 0.31 ± 0.020

**Q:** Report growth rate under test system Scenedesmus obliquus for O=C(O)Cc1c[nH]c2ccccc12 .
**A:** 0.42 ± 0.081

**Q:** Report growth rate under test system Scenedesmus obliquus for c1ccc(CNc2ncnc3nc[nH]c23)cc1 .
**A:** 0.39 ± 0.092

**Q:** Report growth rate under test system Scenedesmus obliquus for C=C1C[C@]23C[C@@]1(O)CC[C@H]2[C@@]12C=C[C@H](O)[C@@](C)(C(=O)O1)[C@H]2[C@@H]3C(=O)O .
**A:** 0.43 ± 0.020

**Q:** Report growth rate under test system Scenedesmus obliquus for O=C(O)Cc1cccc2ccccc12 .
**A:** 0.33 ± 0.020
